target: UniProtKB P03951; test: Inhibition of human coagulation Factor XIa by absorbance method (S-2366 substrate, 405 nm); conditions: incubated at 37 °C for 20 minutes; substrate 800 µM; read-out: Recombinant Enzyme FXIa IC50
Sequence (P03951 388-625 limits assumed): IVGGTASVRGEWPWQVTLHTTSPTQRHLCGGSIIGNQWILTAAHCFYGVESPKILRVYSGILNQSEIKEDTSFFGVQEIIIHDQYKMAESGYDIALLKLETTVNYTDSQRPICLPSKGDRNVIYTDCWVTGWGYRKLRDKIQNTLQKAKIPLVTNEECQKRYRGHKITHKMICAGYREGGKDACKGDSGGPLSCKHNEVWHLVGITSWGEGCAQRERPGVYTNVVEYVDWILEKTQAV
Sequence (P03951 19-387 partner limits assumed): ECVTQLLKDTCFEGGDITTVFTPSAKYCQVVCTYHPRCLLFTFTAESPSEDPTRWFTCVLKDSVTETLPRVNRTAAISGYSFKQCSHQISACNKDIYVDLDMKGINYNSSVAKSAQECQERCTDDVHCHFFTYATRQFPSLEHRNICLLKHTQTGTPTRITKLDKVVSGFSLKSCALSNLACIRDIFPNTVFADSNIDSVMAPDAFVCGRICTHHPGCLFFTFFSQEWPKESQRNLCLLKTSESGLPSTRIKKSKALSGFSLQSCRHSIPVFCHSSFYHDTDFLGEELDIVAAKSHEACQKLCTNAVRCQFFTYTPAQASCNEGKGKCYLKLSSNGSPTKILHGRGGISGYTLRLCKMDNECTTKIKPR
measure: IC50 (nM)

[[record]]
compound_structure = "C[C@@H]1CCC[C@H](n2cnc(-c3cc(Cl)ccc3-n3cc(Cl)nn3)cc2=O)c2cc(cc(F)c2F)-c2c(cnn2C(F)F)NC1=O"
result_value = 0.38

[[record]]
compound_structure = "[2H]C([2H])([2H])n1ncc2c1-c1cc(F)c(F)c(c1)[C@@H](n1cnc(-c3cc(Cl)ccc3-n3cc(Cl)nn3)cc1=O)CCC[C@@H](C)C(=O)N2"
result_value = 0.24

[[record]]
compound_structure = "C[C@@H]1CCC[C@H](n2cnc(-c3cc(Cl)ccc3-n3cc(C(F)(F)F)nn3)cc2=O)c2cc(cc(F)c2F)-c2c(cnn2C(F)F)NC1=O"
result_value = 0.31

[[record]]
compound_structure = "[2H]C([2H])([2H])n1ncc2c1-c1cc(F)c(F)c(c1)[C@@H](n1ccc(-c3cc(Cl)ccc3-n3cc(C(F)F)nn3)cc1=O)CCC[C@@H](C)C(=O)N2"
result_value = 0.77

[[record]]
compound_structure = "C[C@@H]1CCC[C@H](n2cnc(-c3c(-n4cc(Cl)nn4)ccc(Cl)c3F)cc2=O)c2cc(cc(F)c2F)-c2c(cnn2C(F)F)NC1=O"
result_value = 0.4

[[record]]
compound_structure = "[2H]C([2H])([2H])n1ncc2c1-c1cc(F)c(F)c(c1)[C@@H](n1cnc(-c3c(-n4cc(Cl)nn4)ccc(Cl)c3F)cc1=O)CCC[C@@H](C)C(=O)N2"
result_value = 0.61


[I] [2H]C([2H])([2H])n1ncc2c1-c1cc(cc(F)c1F)[C@@H](n1cnc(-c3cc(Cl)ccc3-n3cc(Cl)nn3)cc1=O)CCC[C@@H](C)C(=O)N2
[II] [2H]C([2H])([2H])n1ncc2c1-c1cc(F)c(F)c(c1)[C@@H](n1ccc(-c3cc(Cl)ccc3-n3cc(C(F)(F)F)nn3)c(Cl)c1=O)CCC[C@@H](C)C(=O)N2
Which item exceeds the other in IC50, I or II ? Your answer should be the label of the entry you select.
I
(I: 0.36 nM, II: 0.15 nM)

[I] [2H]C([2H])([2H])n1ncc2c1-c1cc(F)c(F)c(c1)[C@@H](n1cnc(-c3cc(Cl)ccc3-n3cc(C(F)(F)F)nn3)cc1=O)CCC[C@@H](C)C(=O)N2
[II] [2H]C([2H])([2H])n1ncc2c1-c1cc(F)c(F)c(c1)[C@@H](n1ncc(-c3c(-n4cc(C(F)(F)F)nn4)ccc(Cl)c3F)c(Cl)c1=O)CCC[C@@H](C)C(=O)N2
Which item exceeds the other in IC50, I or II ? Your answer should be the label of the entry you select.
II

[1] [2H]C([2H])([2H])n1ncc2c1-c1cc(F)c(F)c(c1)[C@@H](n1ncc(-c3cc(Cl)ccc3-n3cc(C(F)(F)F)nn3)cc1=O)CCC[C@@H](C)C(=O)N2
[2] [2H]C([2H])([2H])n1ncc2c1-c1cc(F)c(F)c(c1)[C@@H](n1cnc(-c3c(-n4cc(C(F)(F)F)nn4)ccc(Cl)c3F)cc1=O)CCC[C@@H](C)C(=O)N2
[3] [2H]C([2H])([2H])n1ncc2c1-c1cc(F)c(F)c(c1)[C@@H](n1ccc(-c3cc(Cl)ccc3-n3cc(C(F)(F)F)nn3)cc1=O)CCC[C@@H](C)C(=O)N2
Sort entries by IC50 from minimum to maximum value. Answer format: the labels, in the requested order.
3, 2, 1
